# credit: ChEMBL document CHEMBL1781927

molecular target: Mitogen-activated protein kinase 10 (Homo sapiens, UniProt P53779); test: Inhibition of JNK3 by TR-FRET assay
Sequence (P53779 whole entry): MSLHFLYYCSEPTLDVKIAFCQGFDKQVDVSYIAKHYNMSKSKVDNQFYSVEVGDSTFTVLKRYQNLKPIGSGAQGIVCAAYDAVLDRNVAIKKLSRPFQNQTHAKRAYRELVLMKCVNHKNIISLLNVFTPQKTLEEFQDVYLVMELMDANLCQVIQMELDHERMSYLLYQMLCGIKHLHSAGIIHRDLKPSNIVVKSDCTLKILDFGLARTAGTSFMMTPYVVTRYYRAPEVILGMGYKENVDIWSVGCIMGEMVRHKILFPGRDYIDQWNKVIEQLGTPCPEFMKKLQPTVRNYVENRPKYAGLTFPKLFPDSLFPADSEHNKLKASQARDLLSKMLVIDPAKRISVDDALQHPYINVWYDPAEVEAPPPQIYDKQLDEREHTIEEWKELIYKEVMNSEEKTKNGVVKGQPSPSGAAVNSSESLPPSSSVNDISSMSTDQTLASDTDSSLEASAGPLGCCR
reported.property: IC50 (µM)

# example entries with known answers
[[record]]
smiles_structure = "c1ccc2cc(-c3ccnn3-c3ccncc3)ccc2c1"
unit_label = "µM"
measured_number = 2.46

[[record]]
smiles_structure = "Cc1nnc(-c2ccncc2)n1-c1ccc2ccccc2c1"
unit_label = "µM"
measured_number = 18.3

[[record]]
smiles_structure = "S=c1[nH]nc(-c2ccncc2)n1-c1ccc2ccccc2c1"
unit_label = "µM"
measured_number = 0.559

[[record]]
smiles_structure = "S=c1[nH]nc(-c2ccnc(NCC3CC3)c2)n1-c1ccc2ccccc2c1"
unit_label = "µM"
measured_number = 0.945

[[record]]
smiles_structure = "c1ccc2cc(-n3cnnc3-c3ccncc3)ccc2c1"
unit_label = "µM"
measured_number = 4.48


[A] c1ccc2cc(-n3nnnc3-c3ccncc3)ccc2c1
[B] c1ccc2cc(-c3n[nH]cc3-c3ccncc3)ccc2c1
[C] Fc1cnccc1-c1n[nH]c(=S)n1-c1ccc2ccccc2c1
[Q] Could you please sort these 3 entries by IC50 from high to low? The response must list the labels following the requested ordering.
[A] A, C, B

====

Recorded measurements of pIC50, one per entry
target: Mitogen-activated protein kinase 8 (Homo sapiens); experiment: Inhibition of JNK1 by TR-FRET assay
Sequence (P45983 whole entry): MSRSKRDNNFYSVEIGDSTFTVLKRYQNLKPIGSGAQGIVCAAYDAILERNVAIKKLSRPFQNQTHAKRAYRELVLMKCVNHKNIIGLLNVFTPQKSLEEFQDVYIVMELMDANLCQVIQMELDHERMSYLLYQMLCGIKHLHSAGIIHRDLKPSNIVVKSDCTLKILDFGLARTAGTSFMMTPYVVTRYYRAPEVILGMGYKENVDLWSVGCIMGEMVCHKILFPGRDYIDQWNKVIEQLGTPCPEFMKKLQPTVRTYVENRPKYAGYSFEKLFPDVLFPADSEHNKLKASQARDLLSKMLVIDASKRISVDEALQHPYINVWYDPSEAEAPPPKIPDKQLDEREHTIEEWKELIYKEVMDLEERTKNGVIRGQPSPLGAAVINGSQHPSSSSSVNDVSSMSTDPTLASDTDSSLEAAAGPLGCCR
pIC50: −log10 of the molar value.

These recorded examples may help you get a feel for the data.
[[record]]
smiles_structure = "S=c1[nH]nc(-c2ccnc(NC3CCCCC3)c2)n1-c1ccc2ccccc2c1"
target = "Mitogen-activated protein kinase 8 (Homo sapiens)"
reported_property = "pIC50"
result = "< 4.30"

[[record]]
smiles_structure = "c1ccc2cc(-n3nnnc3-c3ccncc3)ccc2c1"
target = "Mitogen-activated protein kinase 8 (Homo sapiens)"
reported_property = "pIC50"
result = "< 4.30"

[[record]]
smiles_structure = "c1ccc2cc(-n3nccc3-c3ccncc3)ccc2c1"
target = "Mitogen-activated protein kinase 8 (Homo sapiens)"
reported_property = "pIC50"
result = "< 4.30"


[Q] Query pIC50 for S=c1[nH]nc(-c2ccnc(NCC3CC3)c2)n1-c1ccc2ccccc2c1
[A] < 4.30

[Q] // fetch pIC50 given entry S=c1[nH]nc(-c2ccncc2)n1-c1cnc2ccccc2c1
[A] < 4.30

[Q] Supply measured pIC50 of Nc1cc(-c2n[nH]c(=S)n2-c2ccc3ccccc3c2)ccn1 in your reply.
[A] 4.61

[Q] Please report pIC50 for the following compound: c1ccc2cc(-n3nncc3-c3ccncc3)ccc2c1
[A] < 4.30

[Q] Give the reported pIC50 for this compound. c1ccc2cc(-n3ccnc3-c3ccncc3)ccc2c1
[A] < 4.30

====

molecular target: Mitogen-activated protein kinase 10 (Homo sapiens); experiment: Inhibition of JNK3 by TR-FRET assay
pIC50: −log10 of the molar value.
reported.property: pIC50

[[record]]
smiles_structure = "N/N=c1\\[nH]nc(-c2ccncc2)n1-c1ccc2ccccc2c1"
result = 4.83

[[record]]
smiles_structure = "Cc1cc(-c2n[nH]c(=S)n2-c2cnc3ccccc3c2)ccn1"
result = "< 4.30"


[Q] Tell me pIC50 reported for FC(F)(F)c1nnc(-c2ccncc2)n1-c1ccc2ccccc2c1
[A] < 4.30

====

assay: Oxidative metabolic stability in mouse liver microsomes assessed as compound remaining after 30 mins; type: ADME, Microsome; conditions: read-out: Stability
reported.property: remaining at 0.5 h (%)

Illustrative cases are given below, each with its answer.
[[record]]
smiles_structure = "c1ccc2cc(-c3cnnn3-c3ccncc3)ccc2c1"
reported_property = "remaining at 0.5 h"
unit_label = "%"
measured_number = 0

[[record]]
smiles_structure = "c1ccc2cc(-n3ccnc3-c3ccncc3)ccc2c1"
reported_property = "remaining at 0.5 h"
unit_label = "%"
measured_number = 0

[[record]]
smiles_structure = "c1ccc2cc(-c3nnnn3-c3ccncc3)ccc2c1"
reported_property = "remaining at 0.5 h"
unit_label = "%"
measured_number = 0


[I] c1ccc2cc(-c3ncncc3-c3ccncc3)ccc2c1
[II] c1ccc2cc(-c3n[nH]cc3-c3ccncc3)ccc2c1
[Q] Would you kindly point out which of I and II has the smaller remaining at 0.5 h figure? // respond with label for picked entry
[A] I
(I: 0%, II: 1%)
